Counter-ions that a name gives are not always drawn.
Parameter melting point: see the listing below.

Consider the worked cases shown below.
NC(=O)c1ccc(-c2ccc(C(CC3CCOCC3)c3ccc(S(=O)(=O)C4CC4)cc3)[nH]2)nc1 (stereo not shown) : 136 to 138 °C
O=C(O)c1cc(-c2nccs2)[nH]c1C(CC1CCOCC1)c1ccc(S(=O)(=O)C2CC2)cc1 (stereo not shown) : 153 to 155 °C
O=C(O)Cc1cnc(-c2ccc(C(CC3CCOCC3)c3ccc(S(=O)(=O)C4CC4)cc3)[nH]2)s1 (stereo not shown) : 246 to 247 °C (dec.)
O=C(O)CCc1cnc(-c2ccc(C(CC3CCOCC3)c3ccc(S(=O)(=O)C4CC4)cc3)[nH]2)s1 (stereo not shown) (as salt: calcium) : > 194 °C (dec.)
CC(O)c1cnc(-c2ccc(C(CC3CCOCC3)c3ccc(S(=O)(=O)C4CC4)cc3)[nH]2)s1 (stereo not shown) [Example 167] : 112 to 114 °C
CS(=O)(=O)c1ccc(C(CC2CCOCC2)c2cnc(-c3ccccn3)[nH]2)cc1Cl (stereo not shown) : 106 to 109 °C
CCOCCNC(=O)c1ccc(-c2ccc(C(CC3CCOCC3)c3ccc(S(=O)(=O)C4CC4)cc3)[nH]2)nc1 (stereo not shown) : 87 to 90 °C
CC(C)=Cc1ccc(-c2ccc(C(CC3CCOCC3)c3ccc(S(=O)(=O)C4CC4)cc3)[nH]2)nc1 (stereo not shown) : 114 to 116 °C
CC(CC1CCOCC1)(c1ccc(S(C)(=O)=O)cn1)c1ccc(-c2ccccn2)[nH]1 (stereo not shown) : 135 to 136 °C
CC(C)(O)C(O)c1ccc(-c2ccc(/C(=C/C3CCOCC3)c3ccc(S(=O)(=O)C4CC4)cc3)[nH]2)nc1 (stereo not shown) : 196 to 197 °C

Name the recorded melting point for O=C(Cc1ccc(-c2ccc(C(CC3CCOCC3)c3ccc(S(=O)(=O)C4CC4)cc3)[nH]2)nc1)N1CCOCC1 (stereo not shown) .
202 to 203 °C

Name the recorded melting point for CC(C)(O)COc1ccc(-c2ccc(C(CC3CCOCC3)c3ccc(S(=O)(=O)C4CC4)cc3)[nH]2)nc1 (stereo not shown) .
110 to 112 °C

Name the recorded melting point for O=S(=O)(c1ccc(C(CC2CCOCC2)c2ccc(-c3nnc(CO)s3)[nH]2)cc1)C1CC1 (stereo not shown) .
208.5 to 208.6 °C

Name the recorded melting point for O=C(Cc1ccc(-c2ccc(C(CC3CCOCC3)c3ccc(S(=O)(=O)C4CC4)cc3)[nH]2)nc1)N1CCC1 (stereo not shown) .
94 to 98 °C

Name the recorded melting point for CC(C)(O)CNC(=O)c1ccc(-c2ccc(C(CC3CCOCC3)c3ccc(S(=O)(=O)C4CC4)cc3)[nH]2)nc1 (stereo not shown) .
126 to 128 °C

Name the recorded melting point for O=C1CC[C@H](CC(c2ccc(S(=O)(=O)C3CC3)cc2)c2ccc(-c3nccs3)[nH]2)C1 (stereo partly shown) .
165 to 167 °C

Name the recorded melting point for NC(=O)Cc1ccc(-c2ccc(C(CC3CCOCC3)c3ccc(S(=O)(=O)C4CC4)cc3)[nH]2)nc1 (stereo not shown) .
151 to 153 °C

Name the recorded melting point for CC(O)c1cnc(-c2ccc(C(CC3CCOCC3)c3ccc(S(=O)(=O)C4CC4)cc3)[nH]2)s1 (stereo not shown) [Example 168] .
115 to 116 °C

Name the recorded melting point for O=C(NC1CC1)c1ccc(-c2ccc(C(CC3CCOCC3)c3ccc(S(=O)(=O)C4CC4)cc3)[nH]2)nc1 (stereo not shown) .
134 to 136 °C
